Biological target: T1, PACAP-R3 (human, UniProt P41587 24-438)
T1 sequence (looked up): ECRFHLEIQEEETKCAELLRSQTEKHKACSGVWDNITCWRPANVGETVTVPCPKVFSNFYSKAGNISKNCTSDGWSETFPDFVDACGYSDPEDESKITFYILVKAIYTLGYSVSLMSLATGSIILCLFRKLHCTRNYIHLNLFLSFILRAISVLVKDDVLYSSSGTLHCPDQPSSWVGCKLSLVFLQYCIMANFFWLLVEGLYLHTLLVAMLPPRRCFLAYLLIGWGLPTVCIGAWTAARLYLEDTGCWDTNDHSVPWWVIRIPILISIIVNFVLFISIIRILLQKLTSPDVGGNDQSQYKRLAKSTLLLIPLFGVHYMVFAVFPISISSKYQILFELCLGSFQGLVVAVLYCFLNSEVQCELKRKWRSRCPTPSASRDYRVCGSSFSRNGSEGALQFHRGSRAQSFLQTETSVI
Assay: cell-based or functional assay
No end group written: not given here.
Property: R3 Selectivity; scope: individual binders

>  <Binder>
HSDAVFTDNYTRLRKQMAKKKYLNSIKNKR [R3P103]

>  <Comparison sign>
=

>  <R3 Selectivity [ratio]>
8

$$$$
>  <Binder>
HSDAVFTDNYTRLRKQLAAKKYLNDILKGGT [R3P23]

>  <Comparison sign>
=

>  <R3 Selectivity [ratio]>
23

$$$$
>  <Binder>
HSDAVFTENYTKLRKQLAAKKYLNDLLNGGT [R3P10]

>  <Comparison sign>
=

>  <R3 Selectivity [ratio]>
0.3

$$$$
>  <Binder>
HSDAVFTDNYTRLRKQMAAKKYLNSIKK [R3P51]

>  <Comparison sign>
=

>  <R3 Selectivity [ratio]>
90

$$$$
>  <Binder>
HSDAVFTDNYTRLRKQMAAKKYLNSIANKR [R3P115]

>  <Comparison sign>
=

>  <R3 Selectivity [ratio]>
50

$$$$
>  <Binder>
HSDGIFTDSYSRYRKQLAAKKYLADVKKGGT [R3P37]

>  <Comparison sign>
=

>  <R3 Selectivity [ratio]>
18

$$$$
>  <Binder>
HSDAVFTDNYTRLRKQVAAKKYLQSILKKR [R3P84]

>  <Comparison sign>
=

>  <R3 Selectivity [ratio]>
40

$$$$
>  <Binder>
HSDGIFTDSYSRYRKQLAVKKYLAAVKK [R3P39]

>  <Comparison sign>
=

>  <R3 Selectivity [ratio]>
2

$$$$
>  <Binder>
HSDAVFTDNYTRLRKQVAAKKYLQSILKKRY [R3P83]

>  <Comparison sign>
=

>  <R3 Selectivity [ratio]>
60

$$$$
>  <Binder>
HSDGIFTDSYSRYRKQMAVKKYLAAVKKYLAAVRHG-NH2 [R3P17]

>  <Comparison sign>
=

>  <R3 Selectivity [ratio]>
2

$$$$
>  <Binder>
HSDAVFTDNYTRLRKQLAAKKYLNDIKKQ [R3P34]

>  <Comparison sign>
>

>  <R3 Selectivity [ratio]>
70

$$$$
>  <Binder>
HSDAVFTDNYTRLRKQMAVKKYLNDILN [R3P48]

>  <Comparison sign>
=

>  <R3 Selectivity [ratio]>
8

$$$$
>  <Binder>
HSDAVFTDNYTRLRKQVAAKKYLQSIKNK [R3P86]

>  <Comparison sign>
=

>  <R3 Selectivity [ratio]>
110

$$$$
